Attribution: the supplement of paper PMC7877785

ASSAY REMARKS: self-splicing fitness, log relative to wild type (ln ratio); higher = more splicing; Tetrahymena group I intron in knt gene, E. coli kanamycin selection, DiMSum; sequences stand for … in CUCUCU…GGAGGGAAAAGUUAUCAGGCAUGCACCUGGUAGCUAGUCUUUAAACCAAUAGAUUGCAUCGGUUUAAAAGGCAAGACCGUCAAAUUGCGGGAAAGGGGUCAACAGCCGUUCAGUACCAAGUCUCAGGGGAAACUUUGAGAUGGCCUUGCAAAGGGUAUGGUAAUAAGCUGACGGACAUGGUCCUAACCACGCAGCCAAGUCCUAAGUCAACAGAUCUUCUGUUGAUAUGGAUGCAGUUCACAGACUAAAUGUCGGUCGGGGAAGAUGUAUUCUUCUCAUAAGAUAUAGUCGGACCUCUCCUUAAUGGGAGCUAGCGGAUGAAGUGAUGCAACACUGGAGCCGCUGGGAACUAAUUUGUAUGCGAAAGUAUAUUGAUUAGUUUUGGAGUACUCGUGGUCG;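 further: selection with 25 µg/mL kanamycin versus none on LB agar overnight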
TEST CONDITIONS: 30 °C
Everything with self-splicing fitness (ln) lower than -2 is not fulfilled; everything else, including exactly -2, is fulfilled.

Previously resolved entries follow.
CCAAAGCAAUAUUACGAUUU : not fulfilled
UUACAGCAAUAUUACGGGAC : not fulfilled
UGGUAGCAAUAUUACGUGGU : not fulfilled

Query: Is the recorded value of self-splicing fitness (ln) equal to or greater than -2 for this sequence? UUAUAGCAAUAUUACGAGUA
Response: fulfilled

Query: And GAUGAGCAAUAUUACGUGGG ?
Response: not fulfilled

Query: And GUUCAGCAAUAUUACGAGUA ?
Response: fulfilled

Query: And GGUUAGCAAUAUUACGCCGU ?
Response: fulfilled

Query: And UUUUAGCAAUAUUACGGCUC ?
Response: not fulfilled

Query: And CAAGAGCAAUAUUACGUAAU ?
Response: not fulfilled

Query: And CGUCAGCAAUAUUACGCAAU ?
Response: fulfilled

Query: And GCCGAGCAAUAUUACGAUAU ?
Response: not fulfilled

Query: And GUCAAGCAAUAUUACGCCUG ?
Response: not fulfilled
